tested on: meal fed obese Zucker rats; experiment: Food consumption assay in meal fed obese Zucker rats; type: in vivo; conditions: Rattus norvegicus, sc, 4 h, amount to decrease food consumption 20% during first four hours
Where a name gives a salt, the structure may show the parent alone.
ED20 overview

COMPOUND	TARGET UNDER TEST	ED20
C[C@H]1CN(CC[C@H](O)C2CCCCC2)CC[C@@]1(C)c1cccc(O)c1	meal fed obese Zucker rats	0.05 mg/kg

Prompt: Form field - read-out: ED20; system: meal fed obese Zucker rats; submitted item: C[C@H]1CN(CCC(=O)c2ccccc2)CC[C@@]1(C)c1cccc(O)c1 (relative stereo) [Compound C, reference compound]
Completion: 3.72 mg/kg

Prompt: Form field - read-out: ED20; system: meal fed obese Zucker rats; submitted item: C=CCCCCN1CCC(C)(c2cccc(O)c2)C(C)C1 (centres unmarked) [Example 21, hydrochloride]
Completion: 9.37 mg/kg

Prompt: Form field - read-out: ED20; system: meal fed obese Zucker rats; submitted item: CCCCCCN1CC[C@@](C)(c2cccc(O)c2)[C@@H](C)C1 (stereo in doubt) [Example 1, hydrochloride]
Completion: 0.08 mg/kg

Prompt: Form field - read-out: ED20; system: meal fed obese Zucker rats; submitted item: CC(C)C(O)CCN1CC[C@@](C)(c2cccc(O)c2)[C@@H](C)C1 (relative stereo) [Example 20, hydrochloride]
Completion: 0.91 mg/kg

Prompt: Form field - read-out: ED20; system: meal fed obese Zucker rats; submitted item: C[C@H]1CN(CCC(O)c2cccs2)CC[C@@]1(C)c1cccc(O)c1 (relative stereo) [Example 40, hydrochloride]
Completion: 0.11 mg/kg

Prompt: Form field - read-out: ED20; system: meal fed obese Zucker rats; submitted item: CC(C)CCCCN1CCC(C)(c2cccc(O)c2)C(C)C1 (centres unmarked) [Example 4, hydrochloride]
Completion: 0.05 mg/kg

Prompt: Form field - read-out: ED20; system: meal fed obese Zucker rats; submitted item: CC1CN(CCCC2CCCCC2)CCC1(C)c1cccc(O)c1 (centres unmarked) [Example 11, hydrochloride]
Completion: 0.15 mg/kg

Prompt: Form field - read-out: ED20; system: meal fed obese Zucker rats; submitted item: "C[C@H]1CN(CC[C@@H](O)C2CCCCC2)CC[C@@]1(C)c1cccc(O)c1"
Completion: 0.13 mg/kg

Prompt: Form field - read-out: ED20; system: meal fed obese Zucker rats; submitted item: C[C@H]1CN(C)CC[C@@]1(C)c1cccc(O)c1 (relative stereo) [Compound B, hydrochloride, reference compound]
Completion: 3.99 mg/kg

Prompt: Form field - read-out: ED20; system: meal fed obese Zucker rats; submitted item: CC1CN(CCC2CCCC2)CCC1(C)c1cccc(O)c1 (centres unmarked) [Example 6, hydrochloride]
Completion: 0.33 mg/kg

Prompt: Form field - read-out: ED20; system: meal fed obese Zucker rats; submitted item: CC(C)CCN1CCC(C)(c2cccc(O)c2)C(C)C1 (centres unmarked) [Example 16, hydrochloride]
Completion: > 20 mg/kg

Prompt: Form field - read-out: ED20; system: meal fed obese Zucker rats; submitted item: CC1CN(CCCc2cccs2)CCC1(C)c1cccc(O)c1 (centres unmarked) [Example 35, hydrochloride]
Completion: 0.08 mg/kg

Prompt: Form field - read-out: ED20; system: meal fed obese Zucker rats; submitted item: CCCCCCN1CCC(C)(c2cccc(O)c2)C(C)C1 (centres unmarked) [Example 22, hydrochloride]
Completion: 0.78 mg/kg

Prompt: Form field - read-out: ED20; system: meal fed obese Zucker rats; submitted item: C[C@H]1CN(CCC(O)C2CCCCC2)CC[C@@]1(C)c1cccc(O)c1 (relative stereo) [Example 27, hydrochloride]
Completion: 0.04 mg/kg

Prompt: Form field - read-out: ED20; system: meal fed obese Zucker rats; submitted item: O=C1CC[C@@]2(O)[C@H]3Cc4ccc(O)c5c4[C@@]2(CCN3CC2CC2)[C@H]1O5 [Compound F, naltrexone, reference compound]
Completion: 2.05 mg/kg

Prompt: Form field - read-out: ED20; system: meal fed obese Zucker rats; submitted item: C[C@H]1CN(CCC(O)C2CCCC2)CC[C@@]1(C)c1cccc(O)c1 (relative stereo) [Example 18, hydrochloride]
Completion: 0.07 mg/kg

Prompt: Form field - read-out: ED20; system: meal fed obese Zucker rats; submitted item: "C[C@@H]1CN(CC[C@H](O)C2CCCCC2)CC[C@]1(C)c1cccc(O)c1"
Completion: 0.12 mg/kg

Prompt: Form field - read-out: ED20; system: meal fed obese Zucker rats; submitted item: "C[C@@H]1CN(CC[C@@H](O)C2CCCCC2)CC[C@]1(C)c1cccc(O)c1"
Completion: 0.35 mg/kg

Prompt: Form field - read-out: ED20; system: meal fed obese Zucker rats; submitted item: CCCCCCN1CC[C@](C)(c2cccc(O)c2)[C@H](C)C1 (stereo in doubt) [Example 2, hydrochloride]
Completion: 1.25 mg/kg

Prompt: Form field - read-out: ED20; system: meal fed obese Zucker rats; submitted item: CCCCCCCN1CCC(C)(c2cccc(O)c2)C(C)C1 (centres unmarked) [Example 8, hydrochloride]
Completion: 0.44 mg/kg

Prompt: Form field - read-out: ED20; system: meal fed obese Zucker rats; submitted item: C[C@@H]1CN(CCCc2cccs2)CC[C@]1(C)c1cccc(O)c1 (stereo in doubt) [Example 37, hydrochloride]
Completion: 0.19 mg/kg

Prompt: Form field - read-out: ED20; system: meal fed obese Zucker rats; submitted item: CC1CN(CCCC2CCCC2)CCC1(C)c1cccc(O)c1 (centres unmarked) [Example 9, hydrochloride]
Completion: 1.25 mg/kg
